Origin of the recorded values: paper PMC6006285

assay: Pharmacokinetics in mouse plasma at conclusion of xenograft study; assay type: in vivo; details: female, athymic nude; mouse plasma, final dose, 100 mg/kg oral gavage twice daily; read-out: Cmax
endpoint: Cmax (ng/mL)

INSERT INTO assay_data (compound, endpoint, endpointresult) VALUES
  ('CC1=C(c2ccc(O)cc2)[C@H](c2ccc(OCCN3CC[C@@H](C)C3)cc2)Oc2cc(O)ccc21', 'Cmax', 1300);

---

System: AP activity in Ishikawa uterine cells
Experiment: Alkaline phosphatase (AP) assay, agonist mode (absence of E2)
Type: cell-based, human
Conditions: 3 days, absence of E2, normalized to 500 pM E2, representative experiment (Fig. 2a)
Description: Our primary screen to distinguish pure antiestrogens from SERMs was induction of alkaline phosphatase (AP) activity in Ishikawa uterine cells. […] The reference SERM used in our screen was endoxifen (N-desmethyl-4-hydroxytamoxifen), the most abundant bioactive metabolite of tamoxifen. Shown is a representative figure analyzed and presented as above. At least 4 h later cells were treated with antiestrogens and media was diluted to 2.5% stripped FBS. […]
endpoint: Maximal AP activity in agonist mode relative to E2 control (%)

INSERT INTO results (compound, endpointresult) VALUES
  ('CC1=C(c2ccc(O)cc2)[C@H](c2ccc(OCCN3CC[C@@H](C)C3)cc2)Oc2cc(O)ccc21 [OP-1074]', 8),
  ('CC1=C(c2ccc(O)cc2)[C@H](c2ccc(OCCN3CCCC3)cc2)Oc2cc(O)ccc21 [OP-1156]', 40),
  ('CC/C(=C(\c1ccc(O)cc1)c1ccc(OCCNC)cc1)c1ccccc1 [endoxifen, (Z)-4-hydroxy-N-desmethyltamoxifen, reference compound]', 82),
  ('CC1=C(c2ccc(O)cc2)[C@H](c2ccc(OCCN3CC[C@H](C)C3)cc2)Oc2cc(O)ccc21 [OP-1154]', 39);

---

experiment: Pharmacokinetics in mouse plasma at conclusion of xenograft study; format: in vivo; details: female, athymic nude, oral, 100 mg/kg; mouse plasma, final dose, over a 24-h period; read-out: Cmax (Fig. 7c)
endpoint: Cmax (µg/mL)

INSERT INTO measurements (compound, endpointresult) VALUES
  ('CC1=C(c2ccc(O)cc2)[C@H](c2ccc(OCCN3CC[C@@H](C)C3)cc2)Oc2cc(O)ccc21', 1.28);

---

system: E2-stimulated AP activity in Ishikawa cells; assay: Alkaline phosphatase (AP) assay, antagonist mode (presence of 500 pM E2); format: cell-based, human; details: Homo sapiens, Ishikawa, 72 h; read-out: IC50 inhibition of E2-stimulated AP activity
Reported IC50 values follow for various compounds
endpoint: IC50 (nM)

INSERT INTO results (compound, endpointresult) VALUES
  ('CC1=C(c2ccc(O)cc2)[C@H](c2ccc(OCCN3CC[C@@H](C)C3)cc2)Oc2cc(O)ccc21 [OP-1074]', 20),
  ('C[C@]12CC[C@@H]3c4ccc(O)cc4C[C@@H](CCCCCCCCC[S+]([O-])CCCC(F)(F)C(F)(F)F)[C@H]3[C@@H]1CC[C@@H]2O (some centres unmarked) [fulvestrant, reference compound]', 3);

---

target: ERα (Homo sapiens); construct: endogenous in cells; experiment: ERα protein levels by immunoblotting; assay type: cell-based; settings: MCF-7 cells, 100 nM ligand, 24 h, means of n experiments ±s.d.
Sequence (P03372 whole entry): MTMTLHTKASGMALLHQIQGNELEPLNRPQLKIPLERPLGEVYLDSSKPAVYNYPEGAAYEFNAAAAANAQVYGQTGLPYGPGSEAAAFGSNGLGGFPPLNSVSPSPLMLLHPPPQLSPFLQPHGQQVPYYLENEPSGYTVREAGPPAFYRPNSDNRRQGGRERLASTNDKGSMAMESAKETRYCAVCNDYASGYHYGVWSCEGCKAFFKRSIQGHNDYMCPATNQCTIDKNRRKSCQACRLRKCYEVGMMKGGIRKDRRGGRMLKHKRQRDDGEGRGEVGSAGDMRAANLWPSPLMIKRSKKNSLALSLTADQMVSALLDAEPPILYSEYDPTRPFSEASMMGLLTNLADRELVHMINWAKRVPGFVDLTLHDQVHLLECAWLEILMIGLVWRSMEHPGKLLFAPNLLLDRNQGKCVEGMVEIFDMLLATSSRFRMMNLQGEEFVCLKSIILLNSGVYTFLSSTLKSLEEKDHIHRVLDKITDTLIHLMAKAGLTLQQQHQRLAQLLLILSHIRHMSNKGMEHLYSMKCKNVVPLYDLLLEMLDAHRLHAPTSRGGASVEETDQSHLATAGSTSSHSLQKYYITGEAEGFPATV
Reported Relative ERα protein levels (% vehicle) values follow for various molecules
endpoint: Relative ERα protein levels (% vehicle)

INSERT INTO results (molecule, endpointresult) VALUES
  ('CC1=C(c2ccc(O)cc2)[C@H](c2ccc(OCCN3CCCC3)cc2)Oc2cc(O)ccc21', '152% ± 31 (n = 4) % vehicle'),
  ('CC1=C(c2ccc(O)cc2)C(c2ccc(OCCN3CCC[C@H]3C)cc2)Oc2cc(O)ccc21 (some centres unmarked)', '119% ± 13 (n = 6) % vehicle'),
  ('CC/C(=C(\c1ccc(O)cc1)c1ccc(OCCNC)cc1)c1ccccc1 [endoxifen, (Z)-4-hydroxy-N-desmethyltamoxifen, reference compound]', '139% ± 34 (n = 20) % vehicle'),
  ('CC1=C(c2ccc(O)cc2)[C@H](c2ccc(OCCN3CC[C@H](C)C3)cc2)Oc2cc(O)ccc21', '123% ± 22 (n = 4) % vehicle'),
  ('CC1=C(c2ccc(O)cc2)C(c2ccc(OCCN3CCC[C@@H]3C)cc2)Oc2cc(O)ccc21 (some centres unmarked)', '319% ± 100 (n = 5) % vehicle');
